# Test system: juvenile hormone III synthesis by corpora allata
# measurement_description: in vitro radiochemical assay for inhibition of juvenile hormone III synthesis and release by corpora allata
# Format: cell-based, Diploptera punctata
# condition: inhibition of juvenile hormone synthesis and release; two hour in vitro radiochemical assay; corpora allata from ten day old pregnant females; read-out: Bioactivity as I.C.50 (Day 10 Donors)
Ends that are not written are not given here.
Property: IC50; scope: individual substances
outcome_measure: IC50 (nM)

>  <substance>
RLPVYNFGL-NH2 [RLPVYNFGL-NH2]

>  <endpoint_value>
270

$$$$
>  <substance>
Ac-RLPVYNFGL-NH2 [acetyl-RLPVYNFGL-NH2]

>  <endpoint_value>
30

$$$$
>  <substance>
LRVYNFGL-NH2 [LRVYNFGL-NH2]

>  <endpoint_value>
118

$$$$
>  <substance>
AYSYVSEYKRLPVYNFGL-NH2 [AYSYVSEYKRLPVYNFGL-NH2]

>  <endpoint_value>
0.3

$$$$
>  <substance>
LPVYNFGL-NH2 [LPVYNFGL-NH2]

>  <endpoint_value>
50

$$$$
>  <substance>
Ac-AYSYVSEYKRLPVYNFGL-NH2 [acetyl-AYSYVSEYKRLPVYNFGL-NH2]

>  <endpoint_value>
1.5

$$$$
